Would you kindly list protein stability index for each of these variants?
B1: WDFY1 (parent)
chain: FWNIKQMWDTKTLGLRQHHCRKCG

Variants of: B1
TEST SUMMARY: protein stability index of a GFP-peptide fusion (GPS, HEK-293T) (PSI 1-6); higher = more stable;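 note: lentivirally expressed fusions sorted by FACS into six bins by GFP to DsRed ratio, PSI derived from sequencing read proportions per bin multiplied by bin number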
ASSAY CONDITIONS: c terminus: a fixed tail appended
One number for each entry.

Examples with answers:
| MUTATION | protein stability index |
| --- | --- |
| I4M | 2.35 |
| K5M | 1.87 |
| L13S | 2.37 |
| K5V | 1.69 |
| H18V | 2.02 |
| R16S | 2.21 |

Go through the list and state protein stability index for each entry.
1. K11V
2. I4K

1.97
2

Go through the list and state protein stability index for each entry.
1. T10H
2. I4D
3. G14S
4. G14W

2.13
2.56
1.97
1.87

Go through the list and state protein stability index for each entry.
1. F1L
2. D9M
3. R16W
4. C23K
5. C23F
6. N3I
7. R21P
8. C23E

1.62
1.25
1.14
2.71
1.59
1.5
2.07
1.93

Go through the list and state protein stability index for each entry.
1. C23M
2. H18L
3. T10Y
4. K11F
5. T10A
6. K11M
7. L15N
8. T10V

1: 2.6; 2: 2.31; 3: 1.41; 4: 1.92; 5: 1.48; 6: 1.94; 7: 2.07; 8: 2.04

Go through the list and state protein stability index for each entry.
1. C23Q
2. F1P

[2.3, 2.29]

Go through the list and state protein stability index for each entry.
1. M7S
2. G14Y
3. W8I
4. L13I

2.39
1.48
1.75
2.26

Go through the list and state protein stability index for each entry.
1. H18P
2. M7C
3. Q17E

1. 2.63
2. 2.06
3. 2.56

Go through the list and state protein stability index for each entry.
1. R16Q
2. L13Y
3. T10P
4. W8R
5. N3G

1. 1.94
2. 2.67
3. 2.28
4. 1.42
5. 2.17
